test: Cynomolgus monkey plasma pharmacokinetics; conditions: male, iv, 4.37 mg/kg, Cmax, monkey P103, 4.37 mg/kg i.v. bolus
Counter-ions that a name gives are not always drawn.
Property name: Cmax

For Cc1ccc(C(=O)Nc2ccc(S(=O)(=O)O)c3cc(S(=O)(=O)O)cc(S(=O)(=O)O)c23)cc1NC(=O)c1cccc(NC(=O)Nc2cccc(C(=O)Nc3cc(C(=O)Nc4ccc(S(=O)(=O)O)c5cc(S(=O)(=O)O)cc(S(=O)(=O)O)c45)ccc3C)c2)c1 [suramin, Suramin sodium salt] the compound record lists Cmax as 141 µg/mL

* * *

experiment: Cynomolgus monkey plasma pharmacokinetics; conditions: male, iv, 4.37 mg/kg, Tmax, monkey P102, 4.37 mg/kg i.v. bolus
Counter-ions that a name gives are not always drawn.
Property name: Tmax (min)
Express the result in min but write the number alone.

For Cc1ccc(C(=O)Nc2ccc(S(=O)(=O)O)c3cc(S(=O)(=O)O)cc(S(=O)(=O)O)c23)cc1NC(=O)c1cccc(NC(=O)Nc2cccc(C(=O)Nc3cc(C(=O)Nc4ccc(S(=O)(=O)O)c5cc(S(=O)(=O)O)cc(S(=O)(=O)O)c45)ccc3C)c2)c1 [suramin, Suramin sodium salt] the molecule record lists Tmax as 4.8

* * *

test: Cynomolgus monkey plasma pharmacokinetics; details: male, iv, 4.37 mg/kg, Cmax, mean of 3 monkeys, 4.37 mg/kg i.v. bolus
Counter-ions that a name gives are not always drawn.
Property name: Cmax (µg/mL)
Express the result in µg/mL but write the number alone.

For Cc1ccc(C(=O)Nc2ccc(S(=O)(=O)O)c3cc(S(=O)(=O)O)cc(S(=O)(=O)O)c23)cc1NC(=O)c1cccc(NC(=O)Nc2cccc(C(=O)Nc3cc(C(=O)Nc4ccc(S(=O)(=O)O)c5cc(S(=O)(=O)O)cc(S(=O)(=O)O)c45)ccc3C)c2)c1 [suramin, Suramin sodium salt] the compound record lists Cmax as 142

* * *

molecular target: CYP1A2 (Homo sapiens); test: in vitro; details: microsomes
Sequence (P05177 whole entry): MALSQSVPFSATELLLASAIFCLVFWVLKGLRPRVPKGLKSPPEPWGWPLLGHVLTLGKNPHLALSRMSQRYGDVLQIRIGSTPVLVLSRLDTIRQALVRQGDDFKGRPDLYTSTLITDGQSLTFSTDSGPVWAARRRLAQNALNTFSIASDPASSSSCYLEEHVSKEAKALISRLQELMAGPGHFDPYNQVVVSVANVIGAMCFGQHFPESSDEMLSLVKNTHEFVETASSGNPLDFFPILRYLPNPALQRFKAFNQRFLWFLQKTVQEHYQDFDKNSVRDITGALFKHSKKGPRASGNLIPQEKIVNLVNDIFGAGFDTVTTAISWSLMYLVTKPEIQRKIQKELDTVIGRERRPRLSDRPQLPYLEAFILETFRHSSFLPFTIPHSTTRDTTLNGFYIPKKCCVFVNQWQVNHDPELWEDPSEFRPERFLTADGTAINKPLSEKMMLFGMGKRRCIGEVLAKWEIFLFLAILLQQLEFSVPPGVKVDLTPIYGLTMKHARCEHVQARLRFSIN
Counter-ions that a name gives are not always drawn.
Property name: inhibition at 10 min, 10 µM (%)
Express the result in % but write the number alone.

For Cc1ccc(C(=O)Nc2ccc(S(=O)(=O)O)c3cc(S(=O)(=O)O)cc(S(=O)(=O)O)c23)cc1NC(=O)c1cccc(NC(=O)Nc2cccc(C(=O)Nc3cc(C(=O)Nc4ccc(S(=O)(=O)O)c5cc(S(=O)(=O)O)cc(S(=O)(=O)O)c45)ccc3C)c2)c1 [suramin, Suramin sodium salt] the compound record lists inhibition at 10 min, 10 µM as 40

* * *

assay: Cynomolgus monkey plasma pharmacokinetics; conditions: male, iv, 4.37 mg/kg, T1/2, mean of 3 monkeys, 4.37 mg/kg i.v. bolus
Counter-ions that a name gives are not always drawn.
Property name: half-life
Answers without a unit are incomplete; give the number and then its unit.

For Cc1ccc(C(=O)Nc2ccc(S(=O)(=O)O)c3cc(S(=O)(=O)O)cc(S(=O)(=O)O)c23)cc1NC(=O)c1cccc(NC(=O)Nc2cccc(C(=O)Nc3cc(C(=O)Nc4ccc(S(=O)(=O)O)c5cc(S(=O)(=O)O)cc(S(=O)(=O)O)c45)ccc3C)c2)c1 [suramin, Suramin sodium salt] the compound record lists half-life as 104 h

* * *

molecular target: CYP3A4 (Homo sapiens); assay: in vitro; details: human microsomes, probe marker substrate cocktail, 1′-hydroxylation (CYP3A4)
Sequence (P08684 whole entry): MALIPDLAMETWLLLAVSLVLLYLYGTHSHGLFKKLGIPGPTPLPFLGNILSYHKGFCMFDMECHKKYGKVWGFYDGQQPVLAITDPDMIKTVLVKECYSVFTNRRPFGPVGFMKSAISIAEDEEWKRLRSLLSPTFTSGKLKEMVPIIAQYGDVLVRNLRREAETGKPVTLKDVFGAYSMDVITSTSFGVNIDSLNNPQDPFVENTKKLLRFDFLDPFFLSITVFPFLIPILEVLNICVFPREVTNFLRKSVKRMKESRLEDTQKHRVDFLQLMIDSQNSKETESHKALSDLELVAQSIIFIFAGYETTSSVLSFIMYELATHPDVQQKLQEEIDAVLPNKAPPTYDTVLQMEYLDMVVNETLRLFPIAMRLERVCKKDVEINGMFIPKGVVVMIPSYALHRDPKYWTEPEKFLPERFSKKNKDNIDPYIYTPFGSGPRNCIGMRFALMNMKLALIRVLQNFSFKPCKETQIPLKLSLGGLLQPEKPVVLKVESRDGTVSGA
Where a name gives a salt, the structure may show the parent alone.
Property name: inhibition at 10 min, 100 µM (%)
Express the result in % but write the number alone.

For Cc1ccc(C(=O)Nc2ccc(S(=O)(=O)O)c3cc(S(=O)(=O)O)cc(S(=O)(=O)O)c23)cc1NC(=O)c1cccc(NC(=O)Nc2cccc(C(=O)Nc3cc(C(=O)Nc4ccc(S(=O)(=O)O)c5cc(S(=O)(=O)O)cc(S(=O)(=O)O)c45)ccc3C)c2)c1 [suramin, Suramin sodium salt] the compound record lists inhibition at 10 min, 100 µM as 34
